Data provenance is the nanobody polyreactivity screen of Harvey et al. (2022).

- Test Description: yeast display, Sf9 membrane polyspecificity reagent, FACS + sequencing; frameworks hold sequencing errors

{"Chain Sequence": "QVQLVESGGGLVQARGSLRLSCASSGFIFSRYAMGWYRQAPGKESELVAAITSGGSTYYADSVKGRFTISRDNAKNTVYLQMNSLKPEDTAVYYCNVVSKSRISQYVGYSYDYWGQGTQVTVSS", "polyreactivity (PSR sort gate)": "high polyreactivity"}
{"Chain Sequence": "QVQLVESGGGLVQAGGSLRLSCAASGSTFLRNAMGWYRQAPGKERQLVAAISRRGGSTYYADSVKGRFTISRDNAKNTVYLQMNSLKPEDTSVYYCAKDYRSPISGDYWGQGTQVTVSS", "polyreactivity (PSR sort gate)": "high polyreactivity"}

* * *

- Test Description: yeast display, Sf9 membrane polyspecificity reagent, FACS + sequencing; frameworks hold sequencing errors

{"Chain Sequence": "QVQLVESGGGLVQAGGSLRLSCAAYYYNMGWYRQAPGKESELVASITWSDVSTYYADSVKRRFTISRDNAKNTVYLQMNSLKPEDTAVYYCAKGTWADAYGYWGQGTQVTVSS", "polyreactivity (PSR sort gate)": "low polyreactivity"}
{"Chain Sequence": "QVQLVESGGGLVQAGGSLRLSCAASGRTFYSYTMGWYRQAPGKEREFVAAISSSGSSTYYADSVKGRFTISRDNAKYTVYLQMNSLKPEDTAVYYCAATRYRYPGYFRYDYWGQGTQVTVSS", "polyreactivity (PSR sort gate)": "high polyreactivity"}
{"Chain Sequence": "QVQLVESGGGLVQAGGSLRLSCAASGRIFAYYAMGWYRQAPGKERELVATINYSGTSTYYADSVKGRFTISRDNAKNTVYLQMNSLKPEDTAVYYCAARYGYAVYYYGTPVRRYYYWGQGTQVTVSS", "polyreactivity (PSR sort gate)": "high polyreactivity"}
{"Chain Sequence": "QVQLVESGGGLVQAGGSLRLSCAASGSIFPSYAMGWYRQAPGKERELVATIGRGGTTNYADSVKGRFTISRDNAKNTVYLQMNSLKPEDTAVYYCNAERIWRYKYGYDYWGQGTQVTVSS", "polyreactivity (PSR sort gate)": "high polyreactivity"}
{"Chain Sequence": "QVQLVESGGGLVQAGGSLRLSCAASGRIFIPYAMGWYRQAPGKERELVAVISWNGGSTYYADSVKGRFTISRDNAKNTVYLQMNSLKPEDTAVYYCAADTYPYAKMDYWGQGTQVTVSS", "polyreactivity (PSR sort gate)": "low polyreactivity"}
{"Chain Sequence": "QVQLEESGGGLVQAGGSLRLSCAASGISFDTYAMGRNRPAPGKERELVAAMSSSGSTNYADSVKGRFTISRDNAKKTVYLQMNSLKPEDTADYYCATDYWPGTGGTYDYWGQGTQVTVSS", "polyreactivity (PSR sort gate)": "low polyreactivity"}
{"Chain Sequence": "QVQLAESGGGLVQAGGSLRLSCAPSGSTFEINAMGWYRQAPGKETELVAAISRGGSTNYADSVKGRFSISRDNAKNTVYLQMNSLKPEDSAVYDCARDPRFRYYRVSYANDQEFEYSGQGTQVTVSS", "polyreactivity (PSR sort gate)": "high polyreactivity"}
{"Chain Sequence": "QVQLVESGGGLVQAGGSLRVSCASSGSIFLDNAMEWYRQAPGKERELVAAISYGDGSTYYADSVKGRITISRDNAKNTVYLQMNRLKPEDTAVYYCAAERYTIPPIYDYWGQGTQVTVSS", "polyreactivity (PSR sort gate)": "low polyreactivity"}
{"Chain Sequence": "QVQLVESGGGLVQAGGSLRLSCAASGGTFGLNAMGWSRLAPGKARELVADIDGRGGSTYYADSVKGRFTISRDNSKNTVYLQMNSRNPEDTAVYYCAARAPFLSVPSELDYWGQCTQVTVSS", "polyreactivity (PSR sort gate)": "low polyreactivity"}
{"Chain Sequence": "QVQLVESGGGLVQAGGSLRLSCAASGRTFRFYAMGWYRQAPGKERELVAAISWNGGRTYYADSVKGRFTISRDNAKNTVYLQMNSLKPEDTAFYYCAKDRGGPFYWRYPLGYWGQGTQVTVSS", "polyreactivity (PSR sort gate)": "high polyreactivity"}
{"Chain Sequence": "QVQLVESGGGLVQAGGSLRLSCAASGFTFQAYAMGWYRQAPGKERELVAAISKSGGSTYYADSVKGRFTISRDNAKNTVYLQMNSLKPEDTAVYYCAARSWERYRAFIYWGQGTQVTVSS", "polyreactivity (PSR sort gate)": "high polyreactivity"}
